- Tested on: AMPA receptors
- testDescription: field EPSP amplitude in field CA1 of rat hippocampal slice
- Type: cell-based
- measurementParameters: rat hippocampal slice
The label depends only on AMP: concentration of modulator that increases the amplitude of the fEPSP by 10%: yes (1) if it is at least 10 µM, no (0) if it is smaller.

Check out these entries, answers already filled in.
{"columns": ["compound", "systemUnderTest", "label"],
 "data": [
  ["O=C1c2cc3c(cc2OC2CCCN12)C(=O)N1CCOC1O3 (stereo not drawn)", "AMPA receptors", "no (0)"],
  ["CC1CCN(C(=O)c2ccc3c(c2)OC2CCCN2C3=O)CC1 (racemic)", "AMPA receptors", "yes (1)"],
  ["CCN1COc2cc(C(=O)C3CCCCC3)ccc2C1=O", "AMPA receptors", "yes (1)"],
  ["O=C(c1ccc2nccnc2c1)N1CCCCC1 [CX516, 1-(quinoxaline-6-ylcarbonyl)piperidine, reference compound]", "AMPA receptors", "yes (1)"]
]}

Would you kindly look at the next entry?
Please tell me: is the compound O=C1c2cc3c(cc2OC2CCCN12)OC1CCCN1C3=O (stereo not drawn) at or over 10 µM in terms of AMP: concentration of modulator that increases the amplitude of the fEPSP by 10%?
yes (1)
